METHOD_NOTES: Human HepG2 cell viability assay in 384 well format
Assay type: toxicity, cell-based
Design: dose 125 nL, time 70.5 hour; concentration not given beside the values
EXPERIMENTAL_CONTEXT: HepG2 cells, read-out: Inhibition
Please go through the items and note down their cytotoxicity at 70.5 h.
The reply must contain the numeric value and, after it, the unit.

Query (compound): CSCC[C@H](NC(=O)Cn1ccc2c(Cl)cccc21)C(=O)O ; field requested: cytotoxicity at 70.5 h
-11.9%

Query (compound): CSCCc1c(-c2ccccc2)ncn1CC(C)(C)N1CCOCC1 ; field requested: cytotoxicity at 70.5 h
-11.9%

Query (compound): CCOCCC(=O)N1CCCC(c2cc(C(F)(F)F)[nH]n2)C1 (stereo unspecified) ; field requested: cytotoxicity at 70.5 h
-10.6%

Query (compound): CC(CCc1ccccc1)NC(=O)CNCCCN(C)C (stereo unspecified) ; field requested: cytotoxicity at 70.5 h
-3.07%

Query (compound): Cc1nc(C)n(CC2CCCN2Cc2cnc(C)s2)n1 (stereo unspecified) ; field requested: cytotoxicity at 70.5 h
-8.97%

Query (compound): CC(C)CC(=O)N1CCN(C(=O)NC(C)C)CC2(CC(=O)N(C)C2)C1 (stereo unspecified) ; field requested: cytotoxicity at 70.5 h
-18.5%

From: ChEMBL document CHEMBL3507680
